system_name: T1, CEACAM1-HIS (Sino Biologics Inc.) (Homo sapiens (Human), UniProt P13688 35-428)
T1 construct: bought; not shown: His tag
T1 sequence: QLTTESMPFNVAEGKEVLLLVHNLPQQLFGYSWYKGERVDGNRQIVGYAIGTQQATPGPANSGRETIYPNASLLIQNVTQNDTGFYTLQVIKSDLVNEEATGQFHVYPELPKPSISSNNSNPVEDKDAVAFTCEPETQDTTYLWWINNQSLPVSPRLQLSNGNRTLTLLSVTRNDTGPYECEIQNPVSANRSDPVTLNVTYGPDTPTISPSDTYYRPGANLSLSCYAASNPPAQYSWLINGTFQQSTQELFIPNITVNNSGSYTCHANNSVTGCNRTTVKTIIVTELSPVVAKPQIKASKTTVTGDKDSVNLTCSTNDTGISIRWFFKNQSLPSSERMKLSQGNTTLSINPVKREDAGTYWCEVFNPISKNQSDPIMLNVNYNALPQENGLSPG
experimental_protocol: SPR multi-cycle
assay_readout: relative KD to chimeric parental antibody expt 1 (ratio)
Give the quantity in ratio, number only.

The reported value for VH1/Vκ2 (antibody, V domains shown) VH: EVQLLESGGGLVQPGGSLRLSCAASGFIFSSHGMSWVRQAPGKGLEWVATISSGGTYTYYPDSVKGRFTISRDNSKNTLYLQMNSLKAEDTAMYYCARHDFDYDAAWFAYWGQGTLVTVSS VL: EIVLTQSPATLSLSPGERATLSCRANSSVSYMYWYQQKPGQAPRPWIYLTSNRATGVPARFSGSGSGTDYTLTISSLEPEDFATYYCQQWSSNPPTFGQGTKLEIK in terms of relative KD to chimeric parental antibody expt 1 is 1.66

Entry source: patent US20250388666A1
